Readings of polymerase ribozyme fitness (log ratio) for the listed variants
B1: TPR 5TU (parent)
chain: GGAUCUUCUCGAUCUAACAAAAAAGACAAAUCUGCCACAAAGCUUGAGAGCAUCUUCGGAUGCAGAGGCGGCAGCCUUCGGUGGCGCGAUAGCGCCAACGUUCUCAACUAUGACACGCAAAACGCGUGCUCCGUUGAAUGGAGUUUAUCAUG

- Variants of: B1
- EXPERIMENT: polymerase ribozyme fitness, log enrichment relative to wild type (log ratio); higher = more active; in vitro selection for triplet polymerase activity
Fewer inactive variants are shown than the library holds.

MUTATION | polymerase ribozyme fitness (log ratio)
U33A U53A U148C | ≤ -4.2

Given item C36U A73U A138U G140C , the value recorded as its polymerase ribozyme fitness (log ratio) is ≤ -4.2

Data point: C14G A23U A28C A40G G42C A89U C116G G124C U134G ; polymerase ribozyme fitness (log ratio) = ≤ -4.2

Input A41U C72G U90G C99G G112U C118U . Output polymerase ribozyme fitness (log ratio): ≤ -4.2

Short answer for A23U A29C A119U : polymerase ribozyme fitness (log ratio) was ≤ -4.2

Per the records, this variant ( G67C C69G A91U ) has polymerase ribozyme fitness (log ratio) equal to ≤ -4.2

G59C G100A A115C U144C has a reported polymerase ribozyme fitness (log ratio) of ≤ -4.2

Recorded result, G48A A49G C54U U90G G92U C99U A121C U151A , polymerase ribozyme fitness (log ratio): ≤ -4.2

The measured polymerase ribozyme fitness (log ratio) associated with A37G G94A reads -1.49

Reported polymerase ribozyme fitness (log ratio) of C57G C96A U139G : -0.754

The reported value for A20C G136A in terms of polymerase ribozyme fitness (log ratio) is -0.55

// polymerase ribozyme fitness (log ratio) lookup, variant = A91G A113C U127C U146G , result: ≤ -4.2

polymerase ribozyme fitness (log ratio) reported for this variant G48C A73U U135G : ≤ -4.2

Reported polymerase ribozyme fitness (log ratio) ( A20U A23C C35G G84A C125U ) = ≤ -4.2

Documented polymerase ribozyme fitness (log ratio) of A49G C96G : -1.61

The recorded polymerase ribozyme fitness (log ratio) for entry U53A C76G equals ≤ -4.2

Given item C18U A47G A52U G68U C79A C93U C99A G141C A142G G143U , the value recorded as its polymerase ribozyme fitness (log ratio) is ≤ -4.2

The variant listed as C85G U109G U144C has a reported polymerase ribozyme fitness (log ratio) of ≤ -4.2

Entry C8U C43U G48C U55A G92C — recorded polymerase ribozyme fitness (log ratio) = ≤ -4.2

polymerase ribozyme fitness (log ratio) reported for this variant U6C U56C A89C A121U : -2.59

polymerase ribozyme fitness (log ratio) reading for A17C A21G A40U G86U A122U : -1.48

Lab note: A29U G50A C116U C129G gave polymerase ribozyme fitness (log ratio) of ≤ -4.2

This collection of values is drawn from the RNAGym collection of RNA variant scans (doi:10.1073/pnas.2313332121).
